system: HeLa; assay: Antiproliferative activity against human HeLa cells assessed as inhibition of cell growth measured after 96 hrs by SRB assay; format: functional, cell-based
observed-property: IC50 (nM)

A. CN(C)C/C=C/C(=O)Nc1ccc(C(=O)N2CCC[C@@H](Nc3ncc(Cl)c(-c4c[nH]c5ccccc45)n3)C2)cc1
B. Cc1ncsc1-c1ccc([C@H](C)NC(=O)[C@@H]2C[C@@H](O)CN2C(=O)[C@@H](NC(=O)CCCCCCNC(=O)CN2CCC[C@@H](Nc3ncc(Cl)c(Nc4ccccc4S(=O)(=O)C(C)C)n3)C2)C(C)(C)C)cc1
Recorded IC50 values differ for A and B ; which one is higher? Kindly state the label of the option you pick.
B
(B: 316 nM, A: 106 nM)

---

test: Cytotoxicity against human L02 cells assessed as inhibition of cell growth measured after 96 hrs by SRB assay; assay type: toxicity, cell-based
observed-property: IC50 at 96 h (nM)
Provide the reading as a plain figure in nM.

Give IC50 at 96 h for CN(C)C/C=C/C(=O)Nc1ccc(C(=O)N2CCC[C@@H](Nc3ncc(Cl)c(-c4c[nH]c5ccccc45)n3)C2)cc1
119
